Assay: NCI Yeast Anticancer Drug Screen. Data for the mec2-1 strain (AID 157)
Conditions: S. cerevisiae mec2-1 strain, at 50.0 µM
This is part of a sample that, as a whole, favours compounds with a hit. Of some 79,000 tested, about 15% had one in any assay. The source made the active and inactive calls. Rule as the data show it: active = growth inhibition above about 70%; inactive = the rest.
The categories you may choose from are YES = active, NO = inactive

Example cases with answers are listed next.
- CCCCOc1ccc(Nc2c3ccccc3nc3ccccc23)cc1: YES
- COc1ccc2nc(N/N=C/c3sccc3C)cc(C)c2c1: YES

Test call for this molecule, please: CC(=O)c1ccc(NCN2C(=O)c3ccccc3C2=O)cc1 YES

Which outcome was entered for the molecule CCCC(=O)OC(OC(=O)CCC)c1ccc([N+](=O)[O-])o1 in this test? NO

// outcome(item) with item = Oc1ccc(Br)cc1C=Nc1cccc(C(F)(F)F)c1 YES

Tell me the assay call for CC(C)OC(CCC#N)c1ccc(Cl)cc1 (configuration not stated) please. NO

In this assay, the call recorded for CN(C)N=Nc1ccc(NC=O)cc1 was what? YES

Identify the outcome logged in this assay for the molecule shown: COc1ccc(/C=C2\CCc3ccccc3C2=O)cc1OC NO

Any idea what this test logged for Cc1ccnc(NS(=O)(=O)c2ccc(Nc3c4ccccc4nc4ccccc34)cc2)n1 ? YES

Which outcome did this test record for the molecule Cc1nc2ccc(NCCN(C)C)c3c(=O)c4ccccc4n1c23 ? NO

# fetch the recorded call for O=S(=O)(CCC[C@H]1[C@@H](CCOCc2ccccc2)C2CCCN1O2)c1ccccc1 (some centres not stated) here NO

Record lookup: outcome of this test for O=C(O)/C=C\C(=O)NNc1ccc(Br)cc1 ? YES

----------
Assay: NCI Yeast Anticancer Drug Screen. Data for the rad50 strain (AID 155)
Conditions: S. cerevisiae rad50 strain growth inhibition; at 100.0 µM; active compounds read high
The panel holds about 79,000 compounds, 15% with a hit somewhere; the sample as a whole holds those more often.
Assign True whenever growth inhibition does not fall below 60%; assign False whenever it does.

• c1ccc(C2=NNC3c4ccccc4-c4ccccc4N3C2)cc1 (centres undefined) = True
• Cc1[nH]nc(C(F)(F)F)c1N=NN(C)C = True
• O=C(O)/C=C\C(=O)NNc1ccc(Br)cc1 = True

Reported growth inhibition at or above 60%? Cc1cc(N(CCOS(C)(=O)=O)CCOS(C)(=O)=O)ccc1C=O True

Check the entry O=C(O)[C@H]1[C@@H](C2CCCCC2)O[C@@H](C2CCCCC2)O[C@H]1C(F)(F)F : does growth inhibition equal or exceed 60%? False

----------
Experiment: NCI Yeast Anticancer Drug Screen. Data for the mlh1 strain (AID 171)
Details: S. cerevisiae mlh1 strain growth inhibition; at 3.7 µM; active compounds read high
Compounds without any hit were thinned out: in the full panel of roughly 79,000, 15% have a hit.
Hi, to clarify the labels: yes covers growth inhibition from -20% upward, no covers anything below -20%.

Study these solved cases before continuing.
- Cc1ccc(P(c2ccc(C)cc2)c2ccc(C)cc2)cc1: no
- Oc1ccc(Br)cc1C=Nc1cccc(C(F)(F)F)c1: yes
- CCOC(=O)C1=C(C)NC(C)=C(C(=O)OCC)C1c1cccc([N+](=O)[O-])c1: no
- O=c1[nH]cc(F)c(=O)[nH]1: yes
- O=c1c(Br)cc2c(-c3ccccc3)c3cc(Br)c(O)c(Br)c3oc-2c1Br: no

API: the following record is the query input.
Could you please find out whether O=C1c2ccccc2C(=O)C1C(c1ccc(F)cc1)C1C(=O)c2ccccc2C1=O has growth inhibition that meets -20% or exceeds it? yes
